Settings: in acetone, 300.65 K
quantity name: solubility (mole fraction)
Returns: the value as a bare number; no unit string appended.

Prompt: Look up solubility (mole fraction) for this compound: CC(C)c1ncc[nH]1
Response: 0.133

---

Conditions: in ethyl acetate, 293.15 K
quantity name: solubility (mole fraction)
Response field accepts a number only; no unit should be typed.

Prompt: // query solubility (mole fraction) value for entry CC(C)c1ncc[nH]1
Response: 0.0737

---

Settings: in ethanol, 290.65 K
quantity name: solubility (mole fraction)
// return just the number, without any unit appended

Prompt: What does the data say about its solubility (mole fraction)? Entry: CC(C)c1ncc[nH]1
Response: 0.226

---

Conditions: in isopropanol, 280.65 K
quantity name: solubility (mole fraction)
Please respond with just the number, no unit label.

Prompt: Endpoint output: solubility (mole fraction) of CC(C)c1ncc[nH]1 . Value?
Response: 0.0768

---

Settings: in isopropanol, 295.65 K
quantity name: solubility (mole fraction)
API doc: respond with a numeric literal and nothing else, no unit.

Prompt: Which solubility (mole fraction) value is on record for CC(C)c1ncc[nH]1 ?
Response: 0.0965

---

Conditions: in ethanol, 293.15 K
quantity name: solubility (mole fraction)

Prompt: Fill in: solubility (mole fraction) of CC(C)c1ncc[nH]1 is ___
Response: 0.235

---

Conditions: in acetonitrile, 288.15 K
quantity name: solubility (mole fraction)
Note: the reply should be a number with no unit written.

Prompt: Name the recorded solubility (mole fraction) for CC(C)c1ncc[nH]1 .
Response: 0.0325

---

Conditions: in methanol, 288.15 K
quantity name: solubility (mole fraction)
// no unit string in output, number only

Prompt: Query: solubility (mole fraction); subject: CC(C)c1ncc[nH]1
Response: 0.263

---

Settings: in acetone, 278.15 K
quantity name: solubility (mole fraction)
Please state the value as a number alone, without comment.

Prompt: Using the record for CC(C)c1ncc[nH]1 , report its solubility (mole fraction).
Response: 0.0906

---

Details: in toluene, 288.15 K
quantity name: solubility (mole fraction)
Provide a numeric answer; units are not to be included.

Prompt: What solubility (mole fraction) value was documented for this compound, CC(C)c1ncc[nH]1 ?
Response: 0.026

---

Conditions: in acetone, 288.15 K
quantity name: solubility (mole fraction)
Give the value as a plain number.

Prompt: Can you share its solubility (mole fraction)? I mean this compound: CC(C)c1ncc[nH]1
Response: 0.108

---

Conditions: in acetone, 305.65 K
quantity name: solubility (mole fraction)
I only need the number, thanks.

Prompt: For CC(C)c1ncc[nH]1 , what is its reported solubility (mole fraction)?
Response: 0.146

---

Conditions: in isopropanol, 310.65 K
quantity name: solubility (mole fraction)

Prompt: Quick one: solubility (mole fraction) for CC(C)c1ncc[nH]1 ?
Response: 0.126

---

Conditions: in isopropanol, 283.15 K
quantity name: solubility (mole fraction)
Provide a numeric answer; units are not to be included.

Prompt: Which solubility (mole fraction) is reported for this molecule? CC(C)c1ncc[nH]1
Response: 0.0801

---

Settings: in acetonitrile, 285.65 K
quantity name: solubility (mole fraction)
Would you mind answering with just the numeric figure?

Prompt: Quick check: solubility (mole fraction) of CC(C)c1ncc[nH]1 ?
Response: 0.0308

---

Settings: in 2-butanone, 308.15 K
quantity name: solubility (mole fraction)
Just the number, please, no unit attached.

Prompt: Suppose we examine the compound CC(C)c1ncc[nH]1 ; what solubility (mole fraction) value has been reported?
Response: 0.194
